The measurements presented in this section are drawn from patent US8389508B2.

EC50 for assorted compounds
# System Under Test: human Endothelial Differentiation G-protein Coupled Receptor 3 (EDG3), S1P3 receptor (Homo sapiens, UniProt Q99500)
# Construct: expressed in transfected cells; host or cells: GeneBLAzer EDG3-Ga15-NFAT-bla HEK 293T
# Sequence (Q99500 whole entry): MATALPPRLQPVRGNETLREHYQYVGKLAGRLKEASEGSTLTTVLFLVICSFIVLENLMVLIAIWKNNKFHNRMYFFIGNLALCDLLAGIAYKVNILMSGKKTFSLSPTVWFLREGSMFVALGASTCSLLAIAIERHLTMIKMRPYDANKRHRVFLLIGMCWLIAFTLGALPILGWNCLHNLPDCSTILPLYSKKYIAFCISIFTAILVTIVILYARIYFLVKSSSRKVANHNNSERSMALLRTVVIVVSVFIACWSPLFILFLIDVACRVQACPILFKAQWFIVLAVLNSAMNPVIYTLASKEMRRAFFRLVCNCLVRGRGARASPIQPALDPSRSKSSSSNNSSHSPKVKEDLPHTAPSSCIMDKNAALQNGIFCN
# Assay Explanation: S1P3 Assay (GeneBLAzer EDG3-Ga15-NFAT-bla HEK 293T beta-lactamase reporter, agonist dose response)
# Type: cell-based
# Condition Context: EDG3-Ga15-NFAT-bla HEK 293T cells, blue/green emission ratio, 10 point dose response, free base or salt form; read-out: pEC50 (S1P3 assay) (converted)
Counter-ions that a name gives are not always drawn.

Compound | Result
Cc1c(CCN2CCC(C(=O)O)CC2)cccc1-c1nsc(-c2ccc(OC(C)C)c(Cl)c2)n1 | > 3.16 µM
CCc1c(CN2CCC(C(=O)O)CC2)cccc1-c1nsc(-c2ccc(OC(C)C)c(C#N)c2)n1 [Example 16, trifluoroacetate] | > 10 µM
CCc1c(-c2nsc(-c3ccc(OC(C)C)c(Cl)c3)n2)cccc1C1CCN(CCCC(=O)O)CC1 [Example 102, trifluoroacetate] | > 10 µM
CCc1c(-c2nnc(-c3ccc(OC(C)C)c(Cl)c3)s2)cccc1C1CCN(CCCC(=O)O)CC1 [Example 97, trifluoroacetate] | > 3.16 µM
CCc1c(-c2nnc(-c3ccc(OC(C)C)c(Cl)c3)s2)cccc1C1CCN(CCC(=O)O)CC1 [Example 95, trifluoroacetate] | > 3.16 µM

Exercise: Given the entry CCc1c(CN2CCCC(C(=O)O)C2)cccc1-c1cnc(-c2ccc(OC(C)C)c(C#N)c2)s1 (stereo not shown) , report its measured EC50.
Key: > 10 µM

Exercise: Given the entry CCc1c(-c2nsc(-c3ccc(OC(C)C)c(Cl)c3)n2)cccc1C1CCN(CCC(=O)O)CC1 , report its measured EC50.
Key: > 10 µM
